This listing pairs molecules with measured solubility.
assay: Solubility at pH 6.8; format: physicochemical; conditions: pH 6.8, aqueous buffer, thermodynamic from solid; read-out: solubility

Past entries and their recorded results:
CCNc1ncc(-c2ccc3ncc4c(c3c2)n(-c2c(C)nn(C)c2C)c(=O)n4C)cc1COC    > 472 µg/mL
CCNc1cc(-c2ccc3ncc4c(c3c2)n(-c2cn(C(C)C)nc2C)c(=O)n4C)cnc1CO    > 472 µg/mL

# query: solubility of entry "CCn1cc(-n2c(=O)n(C)c3cnc4ccc(-c5cncc(C(C)(C)O)c5)cc4c32)c(C)n1" > 443 µg/mL

* * *

test: Solubility at pH 6.8; type: physicochemical; settings: pH 6.8, aqueous buffer, thermodynamic from solid; read-out: solubility
measured-attribute: solubility (µg/mL)

Past entries and their recorded results:
Cc1nn(C)cc1-n1c(=O)n(C)c2cnc3ccc(-c4cncc(NC5CCC5)c4)cc3c21    11
CNC(=O)c1ccc(-c2ccc3ncc4c(c3c2)n(-c2cn(C)nc2C)c(=O)n4C)cn1    10
Cc1nn(C)cc1-n1c(=O)n(C)c2cnc3ccc(-c4cnc5c(c4)C(C)(C)C(=O)N5C)cc3c21    11
Cc1nn(C)cc1-n1c(=O)n(C)c2cnc3ccc(-c4cncc(N5CCOCC5)c4)cc3c21    35
Cc1nn(C)cc1-n1c(=O)n(C)c2cnc3ccc(-c4ccc5c(c4)CC(=O)N5)cc3c21    33
COc1ccc(-c2ccc3ncc4[nH]c(=O)n(-c5cn(C)nc5C)c4c3c2)cn1    3
CNc1ncc(-c2ccc3ncc4c(c3c2)n(-c2cn(C(C)C)nc2C)c(=O)n4C)cc1F    5
COc1ccc(-c2ccc3ncc4c(c3c2)n(-c2c(C)nn(C)c2C)c(=O)n4C)cn1    50
Cc1nn(C)cc1-n1c(=O)n(C)c2cnc3ccc(-c4ccnc(OC(C)C)c4)cc3c21    7
Cc1nn(C)cc1-n1c(=O)n(C)c2cnc3ccc(-c4cnc(CO)c(Cl)c4)cc3c21    8

P: COc1ncc(-c2ccc3ncc4c(c3c2)n(-c2cn(C)nc2Cl)c(=O)n4C)cc1N
Q: Cc1nn(C)cc1-n1c(=O)n(C)c2cnc3ccc(-c4ccc(OCCCO)nc4)cc3c21
Hi, I'm comparing two records. Which one has the lower solubility, P or Q ? Identify your pick by its label. P
(P: 3 µg/mL, Q: 32 µg/mL)

I: Cc1nn(C)cc1-n1c(=O)n(C)c2cnc3ccc(-c4ccc(N)nc4)cc3c21
II: COCc1ncc(-c2ccc3ncc4c(c3c2)n(-c2cn(C)nc2C)c(=O)n4C)cc1OC
III: Cc1nn(C)c(C)c1-n1c(=O)n(C)c2cnc3ccc(-c4cccc(O)c4)cc3c21
IV: CCNc1cc(-c2ccc3ncc4c(c3c2)n(-c2cn(C)nc2C)c(=O)n4C)cnc1CO
List from greatest to least solubility. Hello, could you send the labels back in the order asked? Thank you. II, III, IV, I
(II: 439 µg/mL, III: 194 µg/mL, IV: 73 µg/mL, I: 16 µg/mL)

A: COc1cc(-c2ccc3ncc4c(c3c2)n(-c2cn(C(C)C)nc2C)c(=O)n4C)cnc1CO
B: CCOc1ncc(-c2ccc3ncc4c(c3c2)n(-c2cn(C)nc2C)c(=O)n4C)cc1NC(C)=O
Hi, I'm comparing two records. Which one has the lower solubility, A or B ? Identify your pick by its label. B

I: Cn1cc(-n2c(=O)n(C)c3cnc4ccc(-c5cncc(C(C)(C)O)c5)cc4c32)c(Cl)n1
II: Cc1nn(C)cc1-n1c(=O)n(C)c2cnc3ccc(-c4cncc(C5(O)CCCC5)c4)cc3c21
Hi there! Just curious which has the higher solubility between I and II . Identify your pick by its label. I
(I: 21 µg/mL, II: 14 µg/mL)

I: COc1ncc(-c2ccc3ncc4c(c3c2)n(-c2cn(C)nc2Cl)c(=O)n4C)cn1
II: CCNc1cc(-c2ccc3ncc4c(c3c2)n(-c2cn(C)nc2Cl)c(=O)n4C)cnc1C
Hi there! Just curious which has the higher solubility between I and II . Identify your pick by its label. II
(II: 222 µg/mL, I: 4 µg/mL)

Reference source for all entries: patent US20140005163A1
